B1: MLL5 (parent)
chain: DCMGIDRQHIPDTYLCERCQPRNL

Variants of: B1
Assay: protein stability index of a GFP-peptide fusion (GPS, HEK-293T) (PSI 1-6); higher = more stable;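 further: lentivirally expressed fusions sorted by FACS into six bins by GFP to DsRed ratio, PSI derived from sequencing read proportions per bin multiplied by bin number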
Conditions: c terminus: a fixed tail appended
The variants listed here are annotated with their protein stability index.
Number only, please.

* DKMGIDRQHIPDTYLCERCQPRNL | 2.99

Prompt: Specify measured protein stability index for DCMGIDRQHIPDTYLCERCQPRDL .
Completion: 3.08

Prompt: Specify measured protein stability index for DCMGIDPQHIPDTYLCERCQPRNL .
Completion: 2.94
